# system: CHIP (Homo sapiens, UniProt Q9UNE7)
# Construct: N-term truncated CHIP (also known as STUB1, Uniprot ID: Q9UNE7, residues 23-303); made in house; host or cells: E. coli BL21 CodonPlus
# Sequence (Q9UNE7 23-303): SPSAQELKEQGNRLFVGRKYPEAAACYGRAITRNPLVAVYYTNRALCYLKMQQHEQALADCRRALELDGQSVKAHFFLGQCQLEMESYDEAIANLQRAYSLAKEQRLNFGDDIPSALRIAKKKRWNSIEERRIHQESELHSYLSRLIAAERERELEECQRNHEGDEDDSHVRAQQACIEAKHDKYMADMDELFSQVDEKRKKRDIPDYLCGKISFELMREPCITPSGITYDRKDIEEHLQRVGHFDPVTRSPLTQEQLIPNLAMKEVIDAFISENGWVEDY
# testDetails: Naive Library Presenter Screening (phage, NGS), CHIP
# Format: binding
# runConditions: CHIP clusters (C83, C84); target concentration 100 nM
Numbered stars: 1 amine (or outer) side, 2 acyl side, 3 side chain; on linkers, the order of the positions; unused ones are H or OH. Bridge positions count the residues as written; N and C are the ends. Ends that are not written are not given here. Phenylene(1,4-NHCOCH2)2 = O=C(C[*:1])Nc1ccc(NC(=O)C[*:2])cc1
experimentalEndpoint: interaction data at Target Concentration 100

Worked examples, 6 sequences total:
INSERT INTO assay_data (sequencerecord, result) VALUES
  ('DPAFWRCQFAAATCEHT (linker 7-14 via Phenylene(1,4-NHCOCH2)2 (inferred))', 210),
  ('DPAQYNCYFAANICTVD (DPAQYNCYFAANICTVD-NH2; linker 7-14 via Phenylene(1,4-NHCOCH2)2 (inferred))', 0),
  ('DPAFDRCQWAAALCMMN (linker 7-14 via Phenylene(1,4-NHCOCH2)2 (inferred))', 4),
  ('DPAINMCYRAAQICDVD (linker 7-14 via Phenylene(1,4-NHCOCH2)2 (inferred))', 0),
  ('DPASQWCQRAASICWID (DPASQWCQRAASICWID-NH2; linker 7-14 via Phenylene(1,4-NHCOCH2)2 (inferred))', 0),
  ('DPAFDACQFAAAMCDHQ (linker 7-14 via Phenylene(1,4-NHCOCH2)2 (inferred))', 23);

[1] DPAFERCQLAAAFCYDS (linker 7-14 via Phenylene(1,4-NHCOCH2)2 (inferred))
[2] DPALEECTQAAHICMVD (linker 7-14 via Phenylene(1,4-NHCOCH2)2 (inferred); not fully specified (C-terminus))
[3] DPAFTACQFAAAMCDSS (linker 7-14 via Phenylene(1,4-NHCOCH2)2 (inferred))
Ask: Please produce an ascending ranking of these sequences based on interaction data at Target Concentration 100. Return the labels ranked in the requested order, please.
Reply: 3, 1, 2
(3: 0, 1: 2, 2: 3)

----------
# system: RNF31 PUB domain (Homo sapiens, UniProt Q96EP0)
# Construct: MBP-TEV (N, cleaved yes); made in house; host or cells: E. coli BL21 (DE3) pLysS
# Sequence (Q96EP0 1-179): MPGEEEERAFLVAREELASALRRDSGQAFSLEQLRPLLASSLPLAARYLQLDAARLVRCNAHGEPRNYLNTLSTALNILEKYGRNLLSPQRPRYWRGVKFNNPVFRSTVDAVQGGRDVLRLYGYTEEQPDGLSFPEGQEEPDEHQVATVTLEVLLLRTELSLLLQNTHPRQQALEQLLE
# testDetails: Phage Library Screening with NGS, RNF31 PUB domain
# Type: binding
# runConditions: RNF31 PUB domain clusters C41-C45; target concentration 300
Ends that are not written are not given here.
experimentalEndpoint: Phage library screen NGS readout, Target Concentration 300

Worked examples, 4 sequences total:
INSERT INTO results (sequencerecord, result) VALUES
  ('DPAIQECLLAAATCWTY', 2),
  ('DPAMIDCFLAAQVCATY (not fully specified; cysteine pairing not given here)', 1),
  ('DPAEDECDWAALYCDMQ', 1),
  ('DPAWQECVIAALVCDTY', 3);

[a] DPAIYQCSLAADICSTY
[b] DPAWTDCDWAALYCDES
[c] DPAYDWCLYAAYQCDQN
Ask: List these items ordered by Phage library screen NGS readout, Target Concentration 300, big to small. Return the labels ranked in the requested order, please.
Reply: c, a, b

Taken from patent US20240376151A1.
